Data provenance is patent US20260184708A1.

# TEST_TARGET: TRPC5 (Homo sapiens)
# Construct: expressed in transfected cells; host or cells: HEK 293
# ASSAY_NOTES: TRPC5 automated patch clamp assay (Qpatch), current block after rosiglitazone stimulation
# Assay type: cell-based
# CONDITION_LABEL: Table 4; HEK293 cells overexpressing TRPC5; rosiglitazone stimulation; 100 mV; read-out: TRPC5_QP_ XC50_100
So I've got a bunch of compounds here, and I need their IC50 values.

Observe how each entry below is paired with its result.
# COMPOUND, MEASURED_VALUE
records = [
    ("Cc1cc(F)ccc1CN1CCN(c2cc(=O)[nH][nH]c2=O)CC1", "10 to 500 µM"),
    ("Cc1ccccc1[C@H](C)N1CCN(c2cn[nH]c(=O)c2Cl)CC1=O [drawing 743]", "1e-05 to 1 µM"),
]

Hi team, please reply with IC50 for each item in this list.
1. Cc1ccccc1[C@@H](C)N1CCN(c2cn[nH]c(=O)c2Cl)CC1
2. O=C1CN(c2cn[nH]c(=O)c2Cl)CCN1Cc1ccc(Cl)cn1
3. O=c1[nH]ncc(N2CCN(Cc3cccc4[nH]ncc34)CC2)c1Cl
4. Cc1cc(F)ccc1CN1CCN(c2c(Cl)c(Br)n[nH]c2=O)CC1=O

Ans.
1: 1 to 5 µM; 2: 10 to 500 µM; 3: 10 to 500 µM; 4: 10 to 500 µM

----------
# TEST_TARGET: TRPC5 (Homo sapiens, UniProt Q9UL62)
# Construct: expressed in transfected cells; host or cells: HEK 293
# Sequence (Q9UL62 1-973): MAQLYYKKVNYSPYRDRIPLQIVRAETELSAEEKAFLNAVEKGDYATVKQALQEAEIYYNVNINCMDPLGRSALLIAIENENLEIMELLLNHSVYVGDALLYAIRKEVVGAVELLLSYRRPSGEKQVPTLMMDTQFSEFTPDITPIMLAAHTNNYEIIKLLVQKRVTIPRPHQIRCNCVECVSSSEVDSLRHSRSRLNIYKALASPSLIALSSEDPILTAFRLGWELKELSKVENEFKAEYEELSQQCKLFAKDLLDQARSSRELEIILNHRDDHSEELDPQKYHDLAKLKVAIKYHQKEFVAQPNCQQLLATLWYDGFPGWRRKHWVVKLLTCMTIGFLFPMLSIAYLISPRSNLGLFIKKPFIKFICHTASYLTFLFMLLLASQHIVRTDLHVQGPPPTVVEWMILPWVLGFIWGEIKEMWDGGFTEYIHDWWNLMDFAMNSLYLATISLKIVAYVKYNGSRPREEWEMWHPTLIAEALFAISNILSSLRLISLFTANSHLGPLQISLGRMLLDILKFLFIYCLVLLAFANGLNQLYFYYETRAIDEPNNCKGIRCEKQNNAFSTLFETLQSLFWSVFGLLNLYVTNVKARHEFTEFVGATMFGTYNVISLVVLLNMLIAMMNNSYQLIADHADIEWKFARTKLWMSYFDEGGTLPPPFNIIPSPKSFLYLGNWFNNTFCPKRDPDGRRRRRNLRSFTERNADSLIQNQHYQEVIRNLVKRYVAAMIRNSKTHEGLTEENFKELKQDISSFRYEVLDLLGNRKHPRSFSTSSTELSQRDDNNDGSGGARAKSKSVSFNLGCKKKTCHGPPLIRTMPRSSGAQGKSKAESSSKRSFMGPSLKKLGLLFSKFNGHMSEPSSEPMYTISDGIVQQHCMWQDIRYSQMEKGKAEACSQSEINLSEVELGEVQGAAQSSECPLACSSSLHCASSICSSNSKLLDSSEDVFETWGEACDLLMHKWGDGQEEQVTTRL
# ASSAY_NOTES: TRPC5 automated patch clamp assay (Qpatch), current block after rosiglitazone stimulation
# Format: cell-based
# CONDITION_LABEL: Table 3; HEK293 cells overexpressing TRPC5; rosiglitazone stimulation; 100 mV; read-out: TRPC5_QP_ XC50_100
Please respond with reported IC50 for every item in the list.

# COMPOUND, IC50
records = [
    ("O=C1CN(c2cn[nH]c(=O)c2Br)CCN1CC1CCCCC1", "1 to 5 µM"),
]

Give me IC50 for each of these compounds, listed below.
1. O=C1CN(c2cn[nH]c(=O)c2Cl)CCN1Cc1ccc(F)cc1Cl [drawing 682]
2. Cc1ccccc1CN1CCN(c2cn[nH]c(=O)c2Cl)CC1
3. Cc1cc(F)ccc1CN1CCN(c2cn[nH]c(=O)c2Cl)CC1 [drawing 679]
4. O=c1[nH]ncc(N2CCN(Cc3cccc(C(F)(F)F)c3)CC2)c1Cl
5. O=c1[nH]ncc(N2CCN(Cc3ccc(Cl)cc3F)CC2)c1Cl
6. Cc1ccccc1CN1CCN(c2cn[nH]c(=O)c2Br)C(C)C1 (stereo not shown) [drawing 650]

Ans.
1: 1 to 5 µM; 2: 1 to 5 µM; 3: 1 to 5 µM; 4: 1 to 5 µM; 5: 10 to 500 µM; 6: 10 to 500 µM
